B1: PhoQ; a variant is named by its letters at X, in order, P23837 (parent)
chain: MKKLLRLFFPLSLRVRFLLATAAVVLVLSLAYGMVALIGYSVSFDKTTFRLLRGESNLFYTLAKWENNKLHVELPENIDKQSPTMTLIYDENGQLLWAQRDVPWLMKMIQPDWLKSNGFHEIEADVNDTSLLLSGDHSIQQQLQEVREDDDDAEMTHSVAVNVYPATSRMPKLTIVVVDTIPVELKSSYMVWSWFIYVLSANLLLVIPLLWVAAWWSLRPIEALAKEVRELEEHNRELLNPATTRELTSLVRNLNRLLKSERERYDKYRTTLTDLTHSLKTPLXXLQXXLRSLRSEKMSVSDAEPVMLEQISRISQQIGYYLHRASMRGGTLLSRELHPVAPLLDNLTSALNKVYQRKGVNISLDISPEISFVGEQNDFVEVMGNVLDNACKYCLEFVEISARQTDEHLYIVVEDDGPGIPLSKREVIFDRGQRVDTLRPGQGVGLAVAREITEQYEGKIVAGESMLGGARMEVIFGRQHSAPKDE

Variants of: B1
Assay: enrichment ratio after two sorts for PhoP signalling (ratio (wild type AVST 3.29)); higher = more functional
Conditions: with PhoP (E. coli)
Whole data set: some 140,000 sequences, median “enrichment ratio after two sorts for PhoP signalling” near 0, cut for the highest 2% near 11. This excerpt belongs to a sample that is enriched for the highest values.
experimental readout: enrichment ratio

variant description: HNFM
experimental readout: enrichment ratio
result: ≤ 0.25
--
variant description: TKCM
experimental readout: enrichment ratio
result: 46.1
--
variant description: KAML
experimental readout: enrichment ratio
result: ≤ 0.25
--
variant description: SNHE
experimental readout: enrichment ratio
result: ≤ 0.25
--
variant description: TEAH
experimental readout: enrichment ratio
result: 40
--
variant description: KRQT
experimental readout: enrichment ratio
result: ≤ 0.25
--
variant description: PGYA
experimental readout: enrichment ratio
result: ≤ 0.25
--
variant description: SNMG
experimental readout: enrichment ratio
result: 12.5
--
variant description: TIQT
experimental readout: enrichment ratio
result: 12.7
--
variant description: TAML
experimental readout: enrichment ratio
result: 25.8
--
variant description: SNMS
experimental readout: enrichment ratio
result: 12
--
variant description: DETN
experimental readout: enrichment ratio
result: ≤ 0.25
--
variant description: IKVK
experimental readout: enrichment ratio
result: ≤ 0.25
--
variant description: VDAS
experimental readout: enrichment ratio
result: ≤ 0.25
--
variant description: DDIR
experimental readout: enrichment ratio
result: ≤ 0.25
--
variant description: VVYG
experimental readout: enrichment ratio
result: ≤ 0.25
--
variant description: GDAQ
experimental readout: enrichment ratio
result: ≤ 0.25
--
variant description: EPTC
experimental readout: enrichment ratio
result: ≤ 0.25
--
variant description: REHF
experimental readout: enrichment ratio
result: ≤ 0.25
--
variant description: MKCM
experimental readout: enrichment ratio
result: ≤ 0.25
--
variant description: EAPV
experimental readout: enrichment ratio
result: ≤ 0.25
--
variant description: SVTN
experimental readout: enrichment ratio
result: 16.4
--
variant description: GGCT
experimental readout: enrichment ratio
result: 15.6
--
variant description: HRML
experimental readout: enrichment ratio
result: ≤ 0.25
--
variant description: SNMW
experimental readout: enrichment ratio
result: 3.59
--
variant description: RIQT
experimental readout: enrichment ratio
result: ≤ 0.25
--
variant description: FLMM
experimental readout: enrichment ratio
result: 1.72
--
variant description: GVTI
experimental readout: enrichment ratio
result: 4.7
--
variant description: KFTN
experimental readout: enrichment ratio
result: ≤ 0.25
--
variant description: TERL
experimental readout: enrichment ratio
result: ≤ 0.25
--
variant description: ADTR
experimental readout: enrichment ratio
result: ≤ 0.25
--
variant description: ACHR
experimental readout: enrichment ratio
result: ≤ 0.25
--
variant description: NAML
experimental readout: enrichment ratio
result: ≤ 0.25
--
variant description: STDK
experimental readout: enrichment ratio
result: ≤ 0.25
--
variant description: NEAM
experimental readout: enrichment ratio
result: ≤ 0.25
--
variant description: VHCY
experimental readout: enrichment ratio
result: ≤ 0.25
--
variant description: TKTS
experimental readout: enrichment ratio
result: 11.9
--
variant description: YWLM
experimental readout: enrichment ratio
result: ≤ 0.25
--
variant description: TQLR
experimental readout: enrichment ratio
result: 2.23
--
variant description: NALM
experimental readout: enrichment ratio
result: 5.51
--
variant description: DKCH
experimental readout: enrichment ratio
result: ≤ 0.25
--
variant description: LRWS
experimental readout: enrichment ratio
result: ≤ 0.25
--
variant description: RLPH
experimental readout: enrichment ratio
result: ≤ 0.25
--
variant description: LAGN
experimental readout: enrichment ratio
result: ≤ 0.25
--
variant description: QEAH
experimental readout: enrichment ratio
result: ≤ 0.25
--
variant description: HYML
experimental readout: enrichment ratio
result: ≤ 0.25
--
variant description: WNPW
experimental readout: enrichment ratio
result: ≤ 0.25
--
variant description: RLRN
experimental readout: enrichment ratio
result: ≤ 0.25
--
variant description: GNCT
experimental readout: enrichment ratio
result: 10.8
--
variant description: AKLM
experimental readout: enrichment ratio
result: 12.4
--
variant description: QEWD
experimental readout: enrichment ratio
result: 4.99
--
variant description: RFQA
experimental readout: enrichment ratio
result: ≤ 0.25
--
variant description: TEGL
experimental readout: enrichment ratio
result: 13.2
--
variant description: TETN
experimental readout: enrichment ratio
result: 24.4
--
variant description: HWYH
experimental readout: enrichment ratio
result: ≤ 0.25
--
variant description: VCTN
experimental readout: enrichment ratio
result: ≤ 0.25
--
variant description: ITTI
experimental readout: enrichment ratio
result: ≤ 0.25
--
variant description: NSRM
experimental readout: enrichment ratio
result: ≤ 0.25
--
variant description: CNWS
experimental readout: enrichment ratio
result: ≤ 0.25
--
variant description: RSQR
experimental readout: enrichment ratio
result: ≤ 0.25
--
variant description: TEQT
experimental readout: enrichment ratio
result: 23.1
--
variant description: MEAM
experimental readout: enrichment ratio
result: 9.82
--
variant description: EREC
experimental readout: enrichment ratio
result: ≤ 0.25
--
variant description: NEQT
experimental readout: enrichment ratio
result: ≤ 0.25
--
variant description: SNFE
experimental readout: enrichment ratio
result: ≤ 0.25
--
variant description: WFHL
experimental readout: enrichment ratio
result: ≤ 0.25
--
variant description: TTTA
experimental readout: enrichment ratio
result: 5.71
--
variant description: KPAP
experimental readout: enrichment ratio
result: ≤ 0.25
--
variant description: WKLM
experimental readout: enrichment ratio
result: ≤ 0.25
--
variant description: KSWD
experimental readout: enrichment ratio
result: ≤ 0.25
--
variant description: VLLM
experimental readout: enrichment ratio
result: 0.26
--
variant description: MNYD
experimental readout: enrichment ratio
result: ≤ 0.25
--
variant description: ATFQ
experimental readout: enrichment ratio
result: 2.02
--
variant description: IMAW
experimental readout: enrichment ratio
result: ≤ 0.25
--
variant description: GNVC
experimental readout: enrichment ratio
result: 11.6
--
variant description: MVAH
experimental readout: enrichment ratio
result: 12.3
--
variant description: HIPP
experimental readout: enrichment ratio
result: ≤ 0.25
--
variant description: TTTI
experimental readout: enrichment ratio
result: 22.1
--
variant description: TEAM
experimental readout: enrichment ratio
result: 16.4
--
variant description: GNVG
experimental readout: enrichment ratio
result: 2.06
--
variant description: TEEL
experimental readout: enrichment ratio
result: ≤ 0.25
--
variant description: NEAH
experimental readout: enrichment ratio
result: ≤ 0.25
--
variant description: MKAH
experimental readout: enrichment ratio
result: ≤ 0.25
--
variant description: VALM
experimental readout: enrichment ratio
result: 16.8
--
variant description: PPYV
experimental readout: enrichment ratio
result: ≤ 0.25
--
variant description: PKLM
experimental readout: enrichment ratio
result: ≤ 0.25
--
variant description: SNLW
experimental readout: enrichment ratio
result: 7.18
--
variant description: DFLG
experimental readout: enrichment ratio
result: ≤ 0.25
--
variant description: VDMS
experimental readout: enrichment ratio
result: ≤ 0.25
--
variant description: IRTW
experimental readout: enrichment ratio
result: ≤ 0.25
--
variant description: PQPV
experimental readout: enrichment ratio
result: ≤ 0.25
